Target: PSG G335A (PSD-95)
Experiment: FP displacement (competition) of FITC-15 AA CRIPT by library peptide, IC50 and Ki
Details: read-out: Ki (µM), PSG G335A; FP displacement of FITC-15 AA CRIPT probe by library peptide
Ends that are not written are not given here.

{"substance": "Ac-YSSPAQSVTPVQTVV [MTMR2]", "Ki": "99 µM"}

---

Molecular target: PSG G322A G335A (PSD-95)
Experiment: FP displacement (competition) of FITC-15 AA CRIPT by library peptide, IC50 and Ki
Conditions: read-out: Ki (µM), PSG G322A G335A; FP displacement of FITC-15 AA CRIPT probe by PSD library peptide; protein PSG G322A G335A
assay.readout: Ki (µM)

{"smiles.text": "CC(=O)N[C@@H](Cc1ccc(O)cc1)C(=O)N1CCC[C@H]1C(=O)N[C@@H](CCC(N)=O)C(=O)N[C@@H](Cc1c[nH]cn1)C(=O)N[C@@H](CC(C)C)C(=O)N[C@@H](CCCNC(=N)N)C(=O)N[C@H](C(=O)N[C@@H](C)C(=O)N[C@@H](CO)C(=O)N[C@@H](CCCCN)C(=O)N[C@@H](CC(N)=O)C(=O)N[C@@H](CCC(=O)O)C(=O)N[C@H](C(=O)N[C@H](C(=O)N[C@H](C(=O)O)C(C)C)[C@@H](C)O)C(C)C)[C@@H](C)O", "val": 580}
{"smiles.text": "CC[C@H](C)[C@H](NC(=O)[C@H](CO)NC(=O)[C@@H]1CCCN1C(=O)[C@H](CCSC)NC(=O)[C@H](CCCCN)NC(=O)[C@H](CCCCN)NC(=O)[C@H](Cc1ccc(O)cc1)NC(=O)[C@@H](NC(=O)[C@H](CCCNC(=N)N)NC(=O)[C@H](CCCNC(=N)N)NC(=O)[C@H](Cc1ccc(O)cc1)NC(C)=O)C(C)C)C(=O)N[C@@H](CCC(=O)O)C(=O)N[C@@H](CO)C(=O)N[C@@H](CC(=O)O)C(=O)N[C@H](C(=O)O)C(C)C", "val": 54}
{"smiles.text": "CC(=O)N[C@@H](Cc1ccc(O)cc1)C(=O)N[C@@H](Cc1ccc(O)cc1)C(=O)N[C@@H](CCC(=O)O)C(=O)N[C@H](C(=O)N[C@@H](CO)C(=O)N[C@@H](Cc1c[nH]cn1)C(=O)N[C@@H](Cc1ccc(O)cc1)C(=O)N1CCC[C@H]1C(=O)N[C@@H](C)C(=O)N[C@@H](CO)C(=O)N1CCC[C@H]1C(=O)N[C@@H](CC(=O)O)C(=O)N[C@@H](CO)C(=O)N[C@@H](Cc1c[nH]c2ccccc12)C(=O)N[C@H](C(=O)O)C(C)C)[C@@H](C)O", "val": 161}

---

Quick list: Ki per entry.
Target: PSG G335A (PSD-95)
Experiment: FP displacement (competition) of FITC-15 AA CRIPT by library peptide, IC50 and Ki
Settings: read-out: Ki (µM), PSG G335A; FP displacement of FITC-15 AA CRIPT probe by acetylated PSD library peptide
Ends that are not written are not given here.

{"substance": "Ac-YPPSSPTLSVSSTSL [KLH17]", "target.entity": "PSG G335A (PSD-95)", "unit.of.measurement": "µM", "Ki": 510}
{"substance": "Ac-YQEQNKVLWIPASPL [DLG5]", "target.entity": "PSG G335A (PSD-95)", "unit.of.measurement": "µM", "Ki": 365}
{"substance": "Ac-YQSGPFIWIPSKEKL [DLG2]", "target.entity": "PSG G335A (PSD-95)", "unit.of.measurement": "µM", "Ki": 758}
{"substance": "Ac-YDVVAVYPNAKVELV [PDLI4]", "target.entity": "PSG G335A (PSD-95)", "unit.of.measurement": "µM", "Ki": 538}
{"substance": "Ac-YLTGAPLATSDETSI [SEM4F]", "target.entity": "PSG G335A (PSD-95)", "unit.of.measurement": "µM", "Ki": 272}
{"substance": "Ac-YDKPLSKKHAHSVNF [PDLI5]", "target.entity": "PSG G335A (PSD-95)", "unit.of.measurement": "µM", "Ki": 736}
